- Tested target: T1, recombinant human activated Factor VII (FVIIa) (human, UniProt P08709 61-212; P08709 213-466, ten glutamate residues of the Gla domain may be gamma-carboxylated)
- T1 construct: chains tethered by a disulfide bond; also called Factor VIIa; rFVIIa
- T1 sequence 1: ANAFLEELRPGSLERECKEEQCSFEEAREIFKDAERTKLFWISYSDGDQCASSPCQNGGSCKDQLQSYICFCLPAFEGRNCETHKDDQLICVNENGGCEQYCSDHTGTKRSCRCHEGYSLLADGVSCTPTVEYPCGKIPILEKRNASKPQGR
- T1 sequence 2: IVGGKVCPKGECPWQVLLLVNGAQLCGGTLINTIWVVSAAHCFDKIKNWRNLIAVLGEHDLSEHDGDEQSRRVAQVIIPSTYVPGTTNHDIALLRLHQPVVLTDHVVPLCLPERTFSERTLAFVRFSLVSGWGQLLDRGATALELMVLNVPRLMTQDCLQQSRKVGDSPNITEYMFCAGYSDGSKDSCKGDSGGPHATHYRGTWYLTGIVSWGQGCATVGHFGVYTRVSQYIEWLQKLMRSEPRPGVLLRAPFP
- Protocol text: BLI (Fortebio)
pKd: −log10 of the molar value.

# Binder, pKd
rows = [
    ("VH SEQ ID NO 642 / VL SEQ ID NO 318 (antibody, IgG4, V domains shown, humanized 11F2; IgG4 S228P/kappa) VH: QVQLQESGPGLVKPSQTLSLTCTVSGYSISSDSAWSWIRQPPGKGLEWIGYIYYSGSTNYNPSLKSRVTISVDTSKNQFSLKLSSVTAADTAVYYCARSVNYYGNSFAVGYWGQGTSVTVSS VL: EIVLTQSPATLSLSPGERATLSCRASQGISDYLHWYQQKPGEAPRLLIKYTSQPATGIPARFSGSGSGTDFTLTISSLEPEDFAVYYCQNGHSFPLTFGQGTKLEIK", 7.09),
    ("VH SEQ ID NO 594 / VL SEQ ID NO 350 (antibody, IgG4, V domains shown, humanized 11F2; IgG4 S228P/kappa) VH: QVQLQESGPGLVKPSDTLSLTCAVSGYSISSDSAWSWIRQPPGKKLEWIGYIQYSGSTNYNPSLKSRVTMSVDTSKNQFSLKLSSVTALDTAVYYCARSVNYYGNSFAVGPWGQGTLVTVSS VL: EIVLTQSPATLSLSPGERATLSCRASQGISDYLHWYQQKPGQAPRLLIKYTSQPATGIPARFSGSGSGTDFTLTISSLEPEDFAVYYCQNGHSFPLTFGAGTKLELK", 7.47),
    ("VH SEQ ID NO 522 / VL SEQ ID NO 494 (antibody, IgG4, V domains shown, humanized 11F2; IgG4 S228P/kappa) VH: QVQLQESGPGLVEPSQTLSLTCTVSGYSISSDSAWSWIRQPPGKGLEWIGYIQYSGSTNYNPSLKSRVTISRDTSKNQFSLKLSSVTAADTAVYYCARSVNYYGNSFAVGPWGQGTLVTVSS VL: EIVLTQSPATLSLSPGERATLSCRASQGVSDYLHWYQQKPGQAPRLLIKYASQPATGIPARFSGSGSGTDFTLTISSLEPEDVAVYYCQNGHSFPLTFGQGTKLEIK", 8.77),
]

Origin of the recorded values: patent US20220064329A1
